From: patent US20140378474A1

- measured_on: Human plasma kallikrein (Homo sapiens, UniProt P03952)
- Construct: purchased Kordia (Leiden, Netherlands) batch HPKA 1303
- Sequence (P03952 391-638 limits assumed): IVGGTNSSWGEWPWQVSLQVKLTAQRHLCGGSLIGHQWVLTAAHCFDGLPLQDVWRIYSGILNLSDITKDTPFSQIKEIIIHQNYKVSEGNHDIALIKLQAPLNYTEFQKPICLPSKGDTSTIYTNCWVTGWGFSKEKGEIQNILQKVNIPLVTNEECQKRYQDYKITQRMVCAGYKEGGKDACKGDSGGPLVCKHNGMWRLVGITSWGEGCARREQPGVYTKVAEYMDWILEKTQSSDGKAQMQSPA
- Sequence (P03952 20-390 partner limits assumed): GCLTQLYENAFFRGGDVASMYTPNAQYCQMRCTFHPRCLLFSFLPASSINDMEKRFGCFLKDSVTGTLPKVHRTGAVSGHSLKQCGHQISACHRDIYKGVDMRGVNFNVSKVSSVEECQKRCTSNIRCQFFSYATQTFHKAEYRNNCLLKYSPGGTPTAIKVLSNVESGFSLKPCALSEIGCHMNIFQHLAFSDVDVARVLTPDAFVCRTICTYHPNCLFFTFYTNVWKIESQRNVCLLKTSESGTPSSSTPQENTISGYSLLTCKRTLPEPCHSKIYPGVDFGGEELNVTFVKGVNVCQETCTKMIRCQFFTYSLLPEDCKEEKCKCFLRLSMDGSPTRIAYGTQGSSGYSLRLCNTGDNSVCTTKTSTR
- experiment_summary: In vitro inhibition of plasma kallikrein (fluorogenic substrate DPro-Phe-Arg-(Rh110)-γGlu-OH)
- Format: biochemical
- reported_conditions: human plasma kallikrein nominally 12 pM, substrate 0.5 μM, 1 hour pre-incubation at room temperature, read after 1 hour (t=60 min)
pIC50: −log10 of the molar value.
experimental_endpoint: pIC50

Worked set:
[[record]]
molecule = "COc1ccc(Cl)c(CNC(=O)c2cn(Cc3ccc4nc(C)ccc4c3)nn2)c1F"
value = 7.38

[[record]]
molecule = "Cc1ccc2cc(Cn3cc(C(=O)NCc4c[nH]c5ccc(Cl)cc45)cn3)ccc2n1"
value = 7.61

[[record]]
molecule = "O=C(NCc1c[nH]c2ccc(Cl)cc12)c1cnn(Cc2ccc(Cn3cccn3)cc2)c1"
value = 8.36


[P] O=C(NCc1c[nH]c2ccc(Cl)cc12)c1cnn(Cc2ccc(Cn3ccccc3=O)cc2)c1
[Q] O=C(NCc1c[nH]c2ccc(Cl)cc12)c1cnn(Cc2ccc(S(=O)(=O)n3cccc3)cc2)c1
[R] C[C@@H](NC(=O)c1cnn(Cc2ccc(Cn3cccn3)cc2)c1)c1cccc(Cl)c1F
Prompt line: Ascending sort, pIC50. Put the labels in the requested order and list them out.
Response line: R, Q, P

----------
- measured_on: Human plasma kallikrein (Homo sapiens, UniProt P03952)
- experiment_summary: In vitro inhibition of plasma kallikrein (fluorogenic substrate DPro-Phe-Arg-(Rh110)-γGlu-OH)
- reported_conditions: human plasma kallikrein nominally 12 pM, substrate 0.5 μM, 1 hour pre-incubation at room temperature, read after 1 hour (t=60 min)
pIC50: −log10 of the molar value. Structures can show the parent of a compound that is named as a salt.
experimental_endpoint: pIC50

Worked set:
[[record]]
molecule = "Cc1ccc2cc(Cn3cc(C(=O)NCc4c(C)ccnc4C)nn3)ccc2n1 [Example 1]"
experimental_endpoint = "pIC50"
value = 4.99

[[record]]
molecule = "Cc1ccc2cc(Cn3cc(C(=O)NCc4ncc(N)nc4C)nn3)ccc2n1 [Example 13]"
experimental_endpoint = "pIC50"
value = 6.11

[[record]]
molecule = "COc1cc(Cn2cc(C(=O)NCc3n[nH]c4ccc(Cl)cc34)cn2)cc(OC)c1 [Example 25]"
experimental_endpoint = "pIC50"
value = 6.51


[I] COc1ccc(Cn2cc(C(=O)NCc3n[nH]c4ccc(Cl)cc34)cn2)cc1OC [Example 24]
[II] N=C(N)c1ccc(CNC(=O)c2cnn(Cc3ccc4ccccc4c3)c2)cc1 [Example 9, hydrochloride]
[III] Cc1ccc2cc(Cn3cc(C(=O)NCc4c(C)cc(O)nc4C)nn3)ccc2n1 [Example 3]
Prompt line: Descending sort on pIC50 required. Put the labels in the requested order and list them out.
Response line: II, I, III

----------
- measured_on: Human plasma kallikrein (Homo sapiens)
- experiment_summary: In vitro inhibition of plasma kallikrein (fluorogenic substrate DPro-Phe-Arg-(Rh110)-γGlu-OH)
- reported_conditions: human plasma kallikrein nominally 12 pM, substrate 0.5 μM, 1 hour pre-incubation at room temperature, read after 1 hour (t=60 min)
pIC50: −log10 of the molar value. Counter-ions that a name gives are not always drawn.
experimental_endpoint: pIC50

[[record]]
molecule = "Cc1cnc2[nH]cc(CNC(=O)c3cn(Cc4ccc5nc(C)ccc5c4)nn3)c2c1"
value = 5.53

[[record]]
molecule = "O=C(NCc1cccc(Cl)c1)c1cnn(Cc2ccc(Cn3cccn3)cc2)c1"
value = 5.88

[[record]]
molecule = "Cc1ccc2cc(Cn3cc(C(=O)NCc4c(C)cnc(O)c4C)nn3)ccc2n1"
value = 5.62


[a] COc1ccnc(C)c1CNC(=O)c1cn(Cc2ccc3nc(C)ccc3c2)nn1
[b] N=C(N)c1ccc(CNC(=O)c2cnn(Cc3ccc(Cn4cccn4)cc3)c2)cc1 [Example 10, hydrochloride]
[c] O=C(NCc1c[nH]c2ccc(Cl)cc12)c1cnn(Cc2ccc(CN3CCOC3=O)cc2)c1
[d] C[C@@H](NC(=O)c1cnn(Cc2ccc(Cn3cccn3)cc2)c1)c1cccc(Cl)c1
Prompt line: Ascending sort, pIC50. Put the labels in the requested order and list them out.
Response line: a, d, c, b

----------
Here the recorded IC50 is given for each entry.
- measured_on: Human plasma kallikrein (Homo sapiens)
- experiment_summary: In vitro inhibition of plasma kallikrein (fluorogenic substrate DPro-Phe-Arg-(Rh110)-γGlu-OH)
- reported_conditions: human plasma kallikrein nominally 12 pM, substrate 0.5 μM, 1 hour pre-incubation at room temperature, read after 1 hour (t=60 min)

Worked set:
[[record]]
compound = "Cc1ccc(CNC(=O)c2cn(Cc3ccc4nc(C)ccc4c3)nn2)c(Cl)n1"
value = "> 30 µM"

[[record]]
compound = "O=C(NCc1n[nH]c2ccc(Cl)cc12)c1cnn(Cc2ccc(S(=O)(=O)n3cccc3)cc2)c1 [Example 21]"
value = "0.0464 µM"


Continue with the compound presented below.
Prompt line: Report IC50 for Cn1nnc2cc(Cn3cc(C(=O)NCc4cccc(Cl)c4)cn3)ccc21 tested on Human plasma kallikrein (Homo sapiens).
Response line: > 30 µM

----------
- measured_on: Human plasma kallikrein (Homo sapiens, UniProt P03952)
- experiment_summary: In vitro inhibition of plasma kallikrein (fluorogenic substrate DPro-Phe-Arg-(Rh110)-γGlu-OH)
- reported_conditions: human plasma kallikrein nominally 12 pM, substrate 0.5 μM, 1 hour pre-incubation at room temperature, read after 1 hour (t=60 min)
experimental_endpoint: IC50 (nM)

[[record]]
smiles_input = "O=C(NCc1n[nH]c2ccc(Cl)cc12)c1cnn(Cc2ccc(CN3CCOC3=O)cc2)c1"
value = 9.1

[[record]]
smiles_input = "COc1ccc(Cn2cc(C(=O)NCc3n[nH]c4ccc(Cl)cc34)cn2)cc1"
value = 353

[[record]]
smiles_input = "Cc1ccc2cc(Cn3cc(C(=O)NCc4c(C)ccnc4C(F)(F)F)nn3)ccc2n1"
value = 2840

[[record]]
smiles_input = "O=C(NCc1n[nH]c2ccc(Cl)cc12)c1cnn(Cc2ccc(Cn3cccn3)cc2)c1"
value = 0.554

[[record]]
smiles_input = "O=C(NCc1cccc(Cl)c1F)c1cnn(Cc2ccc(Cn3cccn3)cc2)c1"
value = 844


[A] COc1cccc(Cn2cc(C(=O)NCc3n[nH]c4ccc(Cl)cc34)cn2)c1
[B] O=C(NCc1n[nH]c2ccc(Cl)cc12)c1cnn(Cc2ccc(Cn3ccccc3=O)cc2)c1
Prompt line: Between A and B , which one has the lower reported IC50 value? // respond with label for picked entry
Response line: B
(B: 0.107 nM, A: 429 nM)

----------
Here the recorded IC50 is given for each entry.
- measured_on: Human plasma kallikrein (Homo sapiens)
- experiment_summary: In vitro inhibition of plasma kallikrein (fluorogenic substrate DPro-Phe-Arg-(Rh110)-γGlu-OH)
- reported_conditions: human plasma kallikrein nominally 12 pM, substrate 0.5 μM, 1 hour pre-incubation at room temperature, read after 1 hour (t=60 min)

[[record]]
smiles_input = "COc1ccc(Cn2cc(C(=O)NCc3ccc(Cl)cc3)cn2)cc1"
value = "> 30 µM"

[[record]]
smiles_input = "Cc1ccc2cc(Cn3cc(C(=O)NCc4n[nH]c5ccc(Cl)cc45)cn3)ccc2n1"
value = "0.0109 µM"

[[record]]
smiles_input = "COc1cccc(Cn2cc(C(=O)NCc3ccc(Cl)cc3)cn2)c1"
value = "> 30 µM"


Prompt line: Give the measured IC50 of COc1cc(C)c(CNC(=O)c2cn(Cc3ccc4nc(C)ccc4c3)nn2)c(C)n1 .
Response line: > 30 µM
